test_summary: qHTS of pediatric cancer cell lines to identify multiple opportunities for drug repurposing: Confirmatory screen for SJ-GBM2 cells (AID 1347116);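 further: 48 hour compound exposure; nearly all actives have a fitted effect of over 60% in size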
condition_parameters: SJ-GBM2 glioblastoma cells, viability; series mostly up to 45.9 µM
Inconclusive results are not listed. Calls of active or inactive are those of the source. The call rests on the fitted dose curve; in most records, active means well fitted cell-killing curve with a large enough effect; inconclusive means small, poorly fitted or top-dose-only effect, or effect the other way; inactive means no such curve, though single readings can be large or run the other way.
Outcomes: 1.0 (active), 0.0 (inactive)

>>> group("CCCCCCCCCCCC1=C(O)C(=O)C=C(O)C1=O")
0.0
>>> group("Nc1ncnc2c1ncn2[C@@H]1O[C@@H](CO)[C@H](O)[C@H]1O")
0.0
>>> group("O=c1cc(-c2ccc(O)cc2)oc2cc(O)cc(O)c12")
0.0
>>> group("O=C1NC(=O)C(=Cc2ccc3c(c2)OC(F)(F)O3)S1")
0.0
>>> group("O=C1C(Cl)=C(NCCN2CCOCC2)C(=O)c2ncccc21")
1.0
>>> group("CO[C@H]1C(=O)[C@]2(C)[C@@H](OC)C[C@H]3OC[C@@]3(OC(C)=O)[C@H]2[C@H](OC(=O)c2ccccc2)[C@]2(O)C[C@H](OC(=O)[C@H](O)[C@@H](NC(=O)OC(C)(C)C)c3ccccc3)C(C)=C1C2(C)C")
0.0
>>> group("NS(=O)(=O)c1cccc2c1C(=O)c1cccc(O)c1C2=O")
1.0
>>> group("O=C(Nc1cccc(Br)c1)c1cccc(S(=O)(=O)N2CCCCCC2)c1")
0.0
>>> group("CC(C)(C(=O)NCC(F)(F)C(F)(F)F)C(=O)N[C@@H]1C(=O)Nc2ccccc2-c2ccccc21")
0.0
>>> group("NC1=N[C@@]2(c3cc(NC(=O)c4ccc(F)cn4)ccc3F)COC[C@@H]2CS1")
0.0
>>> group("CC(C)n1nc(-c2ccc3oc(N)nc3c2)c2c(N)ncnc21")
1.0
>>> group("CC1(C)CCC2=C(O1)c1ccccc1C(=O)C2=O")
1.0
>>> group("CC1(C)O[C@H]2C[C@@H]3[C@H]4CCC5=CC(=O)C=C[C@]5(C)[C@@]4(F)[C@@H](O)C[C@]3(C)[C@]2(C(=O)CO)O1")
0.0
